Hey, just so you know, these numbers are from PubChem BioAssay AID686979.

- Procedure summary: qHTS for Inhibitors of human tyrosyl-DNA phosphodiesterase 1 (TDP1): qHTS in cells in presence of CPT; further: nearly all actives have a fitted effect of over 55% in size
- Experimental conditions: chicken DT40 Tdp1-/-;hTDP1 cells + 20 nM CPT, ATP luminescence, 48 h; series mostly up to 46.2 µM
Hit rate of the full screen: of about 420,000 compounds, about 50,000 (12%) were called active. Another 26% or so got no clear call; they are omitted. The call rests on the fitted dose curve; in most records, active means well fitted inhibition curve with a large enough effect; inconclusive means small, poorly fitted or top-dose-only effect; inactive means flat fitted curve, though single readings scatter. Only a selection was taken, and actives are over-represented in it overall.
Parameter call: string, one of active, inactive

INSERT INTO results (compound, classification) VALUES
  ('Cc1ccc(C)c(N2CCN(S(=O)(=O)c3ccc4c(c3)oc(=O)n4C)CC2)c1', 'inactive');

Shifting focus to the compound that follows.
Prompt: For Cc1c(NC(=O)CSc2nnc(-c3cccnc3)n2N)c(=O)n(-c2ccccc2)n1C , what call appears in the results of this test?
Completion: inactive

====

- Procedure summary: qHTS for Inhibitors of human tyrosyl-DNA phosphodiesterase 1 (TDP1): qHTS in cells in presence of CPT; further: nearly all actives have a fitted effect of over 55% in size
- Experimental conditions: chicken DT40 Tdp1-/-;hTDP1 cells + 20 nM CPT, ATP luminescence, 48 h; series mostly up to 46.2 µM
The whole screen tested about 420,000 compounds, of which about 50,000 (12%) were called active. Not shown: some 26% with an inconclusive outcome. Calls come from the whole dose curve; as a rule, active = well fitted inhibition curve with a large enough effect; inconclusive = small, poorly fitted or top-dose-only effect; inactive = flat fitted curve, though single readings scatter. This is one part of a sample in which actives are shown more often than they occur.
Parameter call: string, one of YES = active, NO = inactive

Prompt: For COc1ccc(C(=O)NNC(=S)NC(=O)c2ccccc2)cc1 , what call appears in the results of this test?
Completion: YES

Prompt: For COC(=O)CSc1nnc(-c2cccnc2)o1 , what call appears in the results of this test?
Completion: NO

Prompt: For CC(C)Oc1ccc(CCC(=O)NNC(=S)NCc2ccccc2)cc1 , what call appears in the results of this test?
Completion: NO

Prompt: For CC1(C(=O)O)CCCN(C(=O)/C=C/c2ccccc2)C1 (configuration not stated) , what call appears in the results of this test?
Completion: NO

Prompt: For COc1ccc(C(=S)Nc2ccccc2)cc1 , what call appears in the results of this test?
Completion: NO

Prompt: For COC(=O)CNC(=O)c1ccccc1[N+](=O)[O-] , what call appears in the results of this test?
Completion: NO

Prompt: For O=C(CCc1ccccc1)NNC(=O)c1ccc(Br)cc1 , what call appears in the results of this test?
Completion: NO

Prompt: For O=C(O)CCC(=O)NCc1ccc2[nH]c3c(c2c1)CCCC3 , what call appears in the results of this test?
Completion: NO

Prompt: For COc1ccc(C(=O)NC(=S)NNC(=O)c2c(-c3ccccc3)noc2C)cc1 , what call appears in the results of this test?
Completion: NO

Prompt: For COc1ccc(NC(=O)CCn2ccnc2)c(OC)c1 , what call appears in the results of this test?
Completion: NO

Prompt: For CC1(C)C2CCC13CS(=O)(=O)NC3C2 (configuration not stated) , what call appears in the results of this test?
Completion: NO

Prompt: For CC(C)Cn1c(N2CCN(C(=O)/C=C/c3ccccc3)CC2)nc2ccccc21 , what call appears in the results of this test?
Completion: YES

====

- Procedure summary: qHTS for Inhibitors of human tyrosyl-DNA phosphodiesterase 1 (TDP1): qHTS in cells in presence of CPT; further: nearly all actives have a fitted effect of over 55% in size
- Experimental conditions: chicken DT40 Tdp1-/-;hTDP1 cells + 20 nM CPT, ATP luminescence, 48 h; series mostly up to 46.2 µM
Hit rate of the full screen: of about 420,000 compounds, about 50,000 (12%) were called active. Roughly 26% stayed inconclusive and do not appear here. Calls come from the whole dose curve; as a rule, active = well fitted inhibition curve with a large enough effect; inconclusive = small, poorly fitted or top-dose-only effect; inactive = flat fitted curve, though single readings scatter. Shown is part of a subset that was picked to be rich in actives.
Parameter call: string, one of active, inactive

A selection of reference data follows.
INSERT INTO measurements (entry_smiles, classification) VALUES
  ('CCN1/C(=C/C(=S)Nc2ccccc2)Sc2ccccc21', 'inactive'),
  ('COc1ccccc1/C=C/C=N/NC(=O)CN1CCN(Cc2ccccc2)CC1', 'inactive');

Prompt: For CN(c1ccccc1)S(=O)(=O)c1ccc(Cl)c(C(=O)OCC(N)=O)c1 , what call appears in the results of this test?
Completion: inactive

Prompt: For COc1ccc2[nH]c3nc(SCC(=O)NC4CC4)nnc3c2c1 , what call appears in the results of this test?
Completion: inactive

Prompt: For CCN1/C(=C\c2ccc3ccccc3[n+]2CC)Sc2cc(C)ccc21 , what call appears in the results of this test?
Completion: active

Prompt: For CCN1/C(=C/c2ccc3ccc(C)cc3[n+]2CC)Sc2ccccc21 , what call appears in the results of this test?
Completion: active
